Please respond with reported IC50 for every item in the list.
System: Pulmonary fibroblasts derived from a human fetus (IMR90)
Assay: Test for inhibition of pulmonary fibroblast proliferation (BrdU incorporation)
Assay type: cell-based
Conditions: Homo sapiens, IMR-90, read-out: IC50 value (nM) of inhibition effect of pulmonary fibroblast proliferation
A number alone suffices; assume nM.

Task item: Item CCOc1cccc(-c2ccc(CN(Cc3cccc(NCC(=O)O)n3)S(=O)(=O)c3cccnc3)cc2)c1 [Example 9] has what recorded IC50?
Reply: 0.051

Task item: Quick one: IC50 of CC#Cc1ccccc1-c1ccc(CN(Cc2cccc(NCC(=O)O)n2)S(=O)(=O)c2ccccn2)cc1 [Comparative example 16] ?
Reply: 0.5

Task item: May I ask what IC50 has been recorded for CC#Cc1cccc(-c2ccc(CN(Cc3cccc(NCC(=O)O)n3)S(=O)(=O)c3ccccc3)cc2)c1 [Example 16] ?
Reply: 0.0088

Task item: Data request, read-out IC50, for O=C(O)CNc1cccc(CN(Cc2ccc(-c3ccccc3)cc2)S(=O)(=O)c2cccnc2)n1 [Comparative example 2]
Reply: 0.97

Task item: For the molecule CC#Cc1cccc(-c2ccc(CN(Cc3cccc(NCC(=O)O)n3)S(=O)(=O)c3cccc(F)c3)cc2)c1 [Example 19] , what IC50 is on record?
Reply: 0.026

---

Test system: Pulmonary fibroblasts derived from a human fetus (IMR90)
Assay: Test for inhibition of pulmonary fibroblast proliferation (BrdU incorporation)
Type: cell-based
Conditions: Homo sapiens, IMR-90, read-out: IC50 value (nM) of inhibition effect of pulmonary fibroblast proliferation
Kindly state IC50 for each of the entries shown.
# unit: nM | format: bare number

Task item: Lab note: need IC50 for CC#Cc1cccc(-c2ccc(CN(Cc3cccc(NCC(=O)O)n3)S(=O)(=O)c3ccccn3)cc2)c1 on Pulmonary fibroblasts derived from a human fetus (IMR90), anyone have it?
Reply: 0.016

Task item: # returns recorded IC50 (system: Pulmonary fibroblasts derived from a human fetus (IMR90)) for CCOc1cccc(-c2ccc(CN(Cc3cccc(NCC(=O)O)n3)S(=O)(=O)c3ccccc3)cc2)c1
Reply: 0.035

Task item: Pulmonary fibroblasts derived from a human fetus (IMR90) / IC50 / CC#Cc1cccc(-c2ccc(CN(Cc3cccc(NCC(=O)O)n3)S(=O)(=O)c3cccnc3)cc2)c1 : value?
Reply: 0.045

Task item: Lookup: IC50 / Pulmonary fibroblasts derived from a human fetus (IMR90) / CC#Cc1cccc(-c2ccc(CN(Cc3cccc(NCC(=O)O)n3)S(=O)(=O)c3cccs3)cc2)c1
Reply: 0.011

Value source: patent US9676720B2
